Sourced from patent US20190315711A1

Reported IC50 values for a set of compounds
- measured.target: human Factor XIa (Homo sapiens)
- Sequence (P03951 388-625 limits assumed): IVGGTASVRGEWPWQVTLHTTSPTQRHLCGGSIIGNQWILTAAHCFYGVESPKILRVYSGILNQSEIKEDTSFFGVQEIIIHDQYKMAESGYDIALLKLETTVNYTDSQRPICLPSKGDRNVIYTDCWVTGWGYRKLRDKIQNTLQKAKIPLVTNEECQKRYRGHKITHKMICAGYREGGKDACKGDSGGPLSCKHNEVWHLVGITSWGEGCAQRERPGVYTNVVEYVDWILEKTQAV
- Sequence (P03951 19-387 partner limits assumed): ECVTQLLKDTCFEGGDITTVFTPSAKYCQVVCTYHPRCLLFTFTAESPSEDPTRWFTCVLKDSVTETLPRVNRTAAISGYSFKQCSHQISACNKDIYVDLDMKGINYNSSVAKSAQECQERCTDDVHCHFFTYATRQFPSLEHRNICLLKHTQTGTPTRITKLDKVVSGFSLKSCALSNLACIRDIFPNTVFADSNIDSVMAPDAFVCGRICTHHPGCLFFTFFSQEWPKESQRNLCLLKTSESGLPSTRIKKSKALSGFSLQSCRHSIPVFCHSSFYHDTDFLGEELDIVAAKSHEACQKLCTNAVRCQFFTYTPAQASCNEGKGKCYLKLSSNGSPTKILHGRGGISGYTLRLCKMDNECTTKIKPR

Some compounds with recorded IC50:
{"columns": ["structure.string", "observed.value"],
 "data": [
  ["CC[C@@H](NC(=O)N1C(=O)[C@H](Cc2ccnc(N)c2)[C@H]1C(=O)N(C)c1ccncc1)c1cccc(F)c1F", "10 to 100 nM"],
  ["CN(C(=O)[C@@H]1[C@@H](Cc2ccncc2)C(=O)N1C(=O)N[C@@H](C1CCCCC1)C1CC1)c1ccccc1", "100 to 1000 nM"],
  ["CC[C@@H](NC(=O)N1C(=O)[C@H](Cc2ccnc(N)c2)[C@H]1C(=O)N(C)c1ccncc1)c1ccccc1F", "< 10 nM"]
]}

Request: Field: IC50 (human Factor XIa (Homo sapiens)). Entry: CN(C(=O)[C@@H]1[C@@H](Cc2ccnc(N)c2)C(=O)N1C(=O)N[C@@H](c1cccnc1)C(F)(F)F)c1ccccc1
Response: 10 to 100 nM

Request: Field: IC50 (human Factor XIa (Homo sapiens)). Entry: CC[C@@H](NC(=O)N1C(=O)[C@H](Cc2ccnc(N)c2)[C@H]1C(=O)N(C)c1cccc(Cl)c1)c1cccc(Cl)c1
Response: < 10 nM

Request: Field: IC50 (human Factor XIa (Homo sapiens)). Entry: CC[C@@H](NC(=O)N1C(=O)[C@H](Cc2ccnc(N)c2)[C@H]1C(=O)N(C)c1ccncc1)c1cccc(C#N)c1
Response: < 10 nM
